Reported ECL signal values are given for each entry in this list.
assayedSystem: T1, rHuman ErbB2/Fc Chimera, CF (R&D Systems Cat#1129-ER) (human, UniProt P04626 23-652)
T1 construct: Bought recombinant protein; also called human epidermal growth factor 2 receptor
measurementDescription: ECL multispot (MSD) binding assay, antigen spotted on plate;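 note: purified Fab incubated 1 h at 20 °C on antigen spots, detected with TAG-labelled antibody, electrochemiluminescence compared with each well's blank, signal-to-blank ratio ≥4 counted as hit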
Please give only the number in your answer, with no unit.

* Fab VH1-46_IGHD6-6*01_IGHJ1*01 S102A/S103P/S104F/H111F (APFF) & L6_IGKJ1*01 S31H (Fab, V domains shown, Tested as Fab (CH1 with His6/Flag tags, kappa CL) made in E. coli; also called APFF / S31H) VH: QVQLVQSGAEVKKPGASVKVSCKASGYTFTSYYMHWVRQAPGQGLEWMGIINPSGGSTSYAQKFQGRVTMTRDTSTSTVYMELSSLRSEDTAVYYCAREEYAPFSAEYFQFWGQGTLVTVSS VL: EIVLTQSPATLSLSPGERATLSCRASQSVSHYLAWYQQKPGQAPRLLIYDASNRATGIPARFSGSGSGTDFTLTISSLEPEDFAVYYCQQRSNWPPWTFGQGTKVEIKR | 307
* Fab VH1-46_IGHD6-6*01_IGHJ1*01 S102A/S103P/S104F/H111F (APFF) & L6_IGKJ1*01 S31A (Fab, V domains shown, Tested as Fab (CH1 with His6/Flag tags, kappa CL) made in E. coli; also called APFF / S31A) VH: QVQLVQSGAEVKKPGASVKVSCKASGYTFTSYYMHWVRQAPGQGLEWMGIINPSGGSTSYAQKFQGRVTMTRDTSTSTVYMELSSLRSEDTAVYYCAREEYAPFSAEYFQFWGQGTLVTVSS VL: EIVLTQSPATLSLSPGERATLSCRASQSVSAYLAWYQQKPGQAPRLLIYDASNRATGIPARFSGSGSGTDFTLTISSLEPEDFAVYYCQQRSNWPPWTFGQGTKVEIKR | 383
* Fab VH1-46_IGHD6-6*01_IGHJ1*01 S102A/S103P/S104F/H111F (APFF) & L6_IGKJ1*01 S31V (Fab, V domains shown, Tested as Fab (CH1 with His6/Flag tags, kappa CL) made in E. coli; also called APFF / S31V) VH: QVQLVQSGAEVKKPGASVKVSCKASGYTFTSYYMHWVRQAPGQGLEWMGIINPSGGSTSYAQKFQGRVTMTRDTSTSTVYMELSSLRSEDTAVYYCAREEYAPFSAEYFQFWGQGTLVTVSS VL: EIVLTQSPATLSLSPGERATLSCRASQSVSVYLAWYQQKPGQAPRLLIYDASNRATGIPARFSGSGSGTDFTLTISSLEPEDFAVYYCQQRSNWPPWTFGQGTKVEIKR | 300
* Fab VH1-46_IGHD6-6*01_IGHJ1*01 S102A/S103P/S104F/H111F (APFF) & L6_IGKJ1*01 S31M (Fab, V domains shown, Tested as Fab (CH1 with His6/Flag tags, kappa CL) made in E. coli; also called APFF / S31M) VH: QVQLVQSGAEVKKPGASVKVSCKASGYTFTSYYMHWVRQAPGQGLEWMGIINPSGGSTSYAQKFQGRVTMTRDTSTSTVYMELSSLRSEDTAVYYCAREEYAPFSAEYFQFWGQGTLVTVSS VL: EIVLTQSPATLSLSPGERATLSCRASQSVSMYLAWYQQKPGQAPRLLIYDASNRATGIPARFSGSGSGTDFTLTISSLEPEDFAVYYCQQRSNWPPWTFGQGTKVEIKR | 352
* Fab VH1-46_IGHD6-6*01_IGHJ1*01 S102A/S103P/S104F/H111F (APFF) & L6_IGKJ1*01 S31F (Fab, V domains shown, Tested as Fab (CH1 with His6/Flag tags, kappa CL) made in E. coli; also called APFF / S31F) VH: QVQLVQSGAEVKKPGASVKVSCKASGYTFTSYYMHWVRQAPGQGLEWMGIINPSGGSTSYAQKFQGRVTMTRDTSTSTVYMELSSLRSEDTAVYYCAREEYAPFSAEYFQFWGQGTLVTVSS VL: EIVLTQSPATLSLSPGERATLSCRASQSVSFYLAWYQQKPGQAPRLLIYDASNRATGIPARFSGSGSGTDFTLTISSLEPEDFAVYYCQQRSNWPPWTFGQGTKVEIKR | 295

Return reported ECL signal. Input binder: Fab VH1-46_IGHD6-6*01_IGHJ1*01 S102A/S103P/S104F/H111F (APFF) & L6_IGKJ1*01 S31P (Fab, V domains shown, Tested as Fab (CH1 with His6/Flag tags, kappa CL) made in E. coli; also called APFF / S31P) VH: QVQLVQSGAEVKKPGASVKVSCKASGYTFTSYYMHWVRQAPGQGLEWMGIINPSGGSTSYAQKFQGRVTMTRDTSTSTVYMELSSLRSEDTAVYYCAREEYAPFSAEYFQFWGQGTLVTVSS VL: EIVLTQSPATLSLSPGERATLSCRASQSVSPYLAWYQQKPGQAPRLLIYDASNRATGIPARFSGSGSGTDFTLTISSLEPEDFAVYYCQQRSNWPPWTFGQGTKVEIKR
372
